- protocol-text: amyloid nucleation score (Sup35N fusion, yeast selection) (log enrichment); library NNK1; higher = more nucleation; inactive = no reads after selection;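 further: zero at mode of non-aggregating sequences after 7 days selection at 30°C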
In this section we review reported amyloid nucleation score values for a set of substances.
Respond with the number and no other words.

- substance: "IVVSQPVFEGYIWLLNVAGG"
  amyloid nucleation score: 4.42
- substance: "CLLVLLLGLRLPYRPRLVFV"
  amyloid nucleation score: 0.463
- substance: "TIFVPGALVDFAAGGTHQLI"
  amyloid nucleation score: -0.088
- substance: "FYSMSGWYSTVKGVCIRTLT"
  amyloid nucleation score: 1.02
- substance: "CSAQTGVGSFPFGNIPVVSV"
  amyloid nucleation score: 0.789

amyloid nucleation score for CMSSLLFD ? 0.921

amyloid nucleation score for IYCSCPSKQE ? -0.075

amyloid nucleation score for ISKSFWTRGECCRK ? 0.368

amyloid nucleation score for ICGYWSLKVVCRMCHPYGNG ? -1.17

amyloid nucleation score for PFHGFGR ? -1.04

amyloid nucleation score for RVGKYDLKSRDLGVGVDGVG ? 0.586

amyloid nucleation score for MGFDLSRRTCLYYLVTLSW ? 0.014

amyloid nucleation score for TIVFMRAHIFW ? 0.788

amyloid nucleation score for VFFLGMVCAVWATFDVSYNG ? 1.31

amyloid nucleation score for KCSVCF ? 2.24

amyloid nucleation score for WNSLSWRVRMRGDNQYRRGR ? 0.675

amyloid nucleation score for EITVAVSDYGVGSTWSG ? 0.381

amyloid nucleation score for DKLICLMLEAASICYKVQSG ? -0.673

This collection of values is drawn from the supplement of paper PMC12042874.
